target: T1, human 4-1BB, full length, on transfected cells (human, UniProt Q07011 24-255); experiment: FACS, CHOK1-h4-1BB cells; Ab 2 ug/ml
T1 construct: whole, on cells; also called CHOK1-h4-1BB
T1 sequence (Q07011 24-255): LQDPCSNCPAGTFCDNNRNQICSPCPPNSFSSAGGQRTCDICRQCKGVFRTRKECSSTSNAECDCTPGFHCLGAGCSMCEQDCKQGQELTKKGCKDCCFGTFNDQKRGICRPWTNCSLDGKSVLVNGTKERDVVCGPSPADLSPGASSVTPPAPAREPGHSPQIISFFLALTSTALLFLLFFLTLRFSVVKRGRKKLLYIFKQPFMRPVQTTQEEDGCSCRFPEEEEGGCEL
attribute.measured: average fluorescence intensity

Examples from the recorded data:
binder="57B3D10 (antibody, V domains shown, also called 4-1BB fully human antibody 57B3D10) VH: QVQLQESGPGLVKPSETLSLTCTVSGGSISSYYWSWIRQPPGKGLEWIGYIYYSGSTNYNPSLKSRVTISVDTSKSQFSLKLTSVTAADTAVYYCAKDSDYYGSGSYSYWYFDLWGRGTLVTVSS VL: EIVMTQSPATLSVSPGERATLSCRASQSVSSNLAWYQQKPGQAPRLLIYGASTRAPGIPARFSGSGSGTEFTLTISSLQSEDFAVYYCQQYNNWPLTFGGGTKVEIK" attribute_measured="average fluorescence intensity" result="555 MFI"
binder="113F6C6 (antibody, V domains shown, also called 4-1BB fully human antibody 113F6C6; 113F6F6) VH: QVQLVESGGGVVQPGRSLRLSCAASGLTFSSYGMHWVRQAPGKGLEWVAVIWYDGSNKYYADSVKGRFTISRDNSKNTLYLQMNSLRAEDTAVYYCAREEVLWFGELSYNYYYGMDVWGQGTTVTVSS VL: DIQMTQSPSSLSASVGDRVTITCRASQGISNYLAWYQQKPGKVPKLLIYAASTLQSGVPSRFSGSGSGTDFTLTISSLQPEDVATYYCQKYNSVPLTFGGGTKVEIK" attribute_measured="average fluorescence intensity" result="477 MFI"

# input for lookup
For the binder 170D7F2 (antibody, V domains shown) VH: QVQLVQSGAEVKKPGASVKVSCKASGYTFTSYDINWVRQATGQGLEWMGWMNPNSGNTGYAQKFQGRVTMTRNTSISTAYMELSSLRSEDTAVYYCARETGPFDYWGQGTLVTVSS VL: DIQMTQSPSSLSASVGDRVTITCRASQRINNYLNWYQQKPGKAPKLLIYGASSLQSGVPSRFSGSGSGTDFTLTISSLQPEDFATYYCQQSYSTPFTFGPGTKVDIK , give its reported average fluorescence intensity. 736 MFI
